B1: mRNA-splicing (parent)
chain: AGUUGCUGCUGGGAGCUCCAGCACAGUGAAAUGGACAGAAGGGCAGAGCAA

- Variants of: B1
- assay_remarks: exon inclusion enrichment index; higher = more inclusion; WT1 exon 5 minigene, HEK293
Listed below: exon inclusion enrichment index values for each entry.

changes | exon inclusion enrichment index
G5C C6U G8C C9U U10C A20G G21U | 2.01
U3A G5A C6U U7A G8U C9A | 0.265
G5C C6A U7C G8A U10A A20G G21A | 0.186
G5A U7C G8A U10C A25U | 2.57
G5C C6A U7C G8A U10A G34A A35C | 0.0814
G5U G8U C9A U10C | 0.61
G5U G8U C9U C22G A23C | 0.0377
G5A C6U U7A G8U C9A A30U A31C | 0.064
G46A A47G | 0.0433
G5U G8U C9U C24A A25C | 0.849
G5C C6G U7C U10C U27G G28U | 0.0303
G5A C6U U7A G8U C9A A47U G48U | 0.0462
G5A U7C G8A U10C C44U A45U | 1.51
G5A U7C G8A U10C G15A C16G | 1.31
A20U G21U | 1.91
G5C C6G U7C U10C G11C G12U | 0.699
G5C C6A U7C G8A U10A G21C C22A | 0.0674
G5A U7C G8A U10C C36G A37G | 0.405
G5A C6A U7C C9A U10C | 2.47
G5U G8U C9U A25G G26U | 0.38
G5A U7C G8A U10C C24A A25G | 2.4
G5A C6U U7A G8U C9A G43A C44A | 0.441
A29G A30U | 0.0289
C6A U7A C9A U10A C19U | 0.0565
G5C C6U G8C C9U U10C C19U A20G | 0.343
G5A C6U U7A G8U C9A G11A G12C | 0.0285
U4A C6U G8C C9U U10C | 0.0827
G2C U3C G5A C6U U7A G8U C9A | 0.0956
G5C C6A U7C G8A C9G U10G | 0.11
U3G U4G G5A C6U U7A G8U C9A | 0.0433
G2U U3G | 0.359
G5A C6G U7G C9A C24A A25G | 0.0011
G2U U3C G5C C6A U7C G8A U10A | 0.619
A30U A31U | 0.087
C6A U7A C9A U10A U27C G28U | 0.4
G5C C6A U7G G8C C9U U10C | 1.36
C22U | 1.27
G5A G8A U10C | 1.77
G5C C6A U7C G8U C9G U10A | 0.381
G5C C6U G8C C9U U10C G28A A29C | 1.12
G5C C6G U7C U10C G41A G42U | 2.89
G5A C6G U7G C9A G43A C44U | 0.00188
G5C C6A U7C G8A U10A G43U C44A | 0.00933
C6A U7A C9A U10A A29U A30C | 0.665
G5A U7C G8A U10C A29G A30U | 0.757
G5C C6U G8C C9U U10C G43A C44U | 2
G5A C6U U7A G8U C9A C19G A20U | 0.0389
G5A C6G U7G C9A A25C G26U | 0.00184
G5C C6A G8C C9U U10C | 2.4
G5A C6G U7G C9A A47U G48U | 0.000738
G5C C6U G8C C9U U10C G11U G12A | 0.0218
G5C C6U G8C C9U U10C A31C U32A | 1.46
G5A U7C G8A U10C G38A A39G | 2.26
C6A U7A C9A U10A A23U C24A | 0.207
U4A G5U C6U G8C C9U U10C | 0.723
U32A | 0.107
G5A U7C G8A U10C C22G A23U | 0.522
G5A U7C G8A U10C A45U G46C | 1.55
G5C C6G U7C U10C C24A A25G | 3.65
G5C C6G U7C U10C C18U C19U | 0.197
G5C C6G U7C U10C G43C C44A | 3.83
C6G | 0.0263
G5A U10C | 2.01
C6A U7C C9A U10C G46U A47U | 3.03
U3A U4A G5C C6G U7C U10C | 3.05
G5A U7C G8A U10C C19G A20G | 1.34
